ASSAY NOTES: Microsomal stability assay, human liver microsomes (HLM)
Type: in vitro ADME
EXPERIMENTAL CONDITIONS: 0.5 mg/mL protein, 1 μM substrate
Where a name gives a salt, the structure may show the parent alone.
QUANTITY NAME: log10 of microsomal CLint at 1 μM (log10 of the value in µL/min/mg)

1. O=C1CCc2c(Oc3ccc4c(c3)CN(C(=O)NCc3ccccc3)CC4)ccnc2N1 [Compound 48] : 1.61
2. O=C1CCc2c(Oc3ccc4c(c3)CC(c3nc(-c5ccccc5C(F)(F)F)c[nH]3)CO4)ccnc2N1 (stereo not drawn) [Compound 4] : 2.42
3. COc1cncc(-c2c[nH]c(C3COc4ccc(Oc5ccnc6c5CCC(=O)N6)cc4C3)n2)c1 (stereo not drawn) [Compound 17] : 1.50
4. O=C1CCc2c(Oc3ccc4c(c3)CC(c3nc(-c5cccc(C(F)(F)F)c5)c[nH]3)CO4)ccnc2N1 (stereo not drawn) [Compound 12] : 1.95
5. O=C1CCc2c(Oc3ccc4c(c3)CC(c3cc(-c5ccccc5Cl)n[nH]3)CO4)ccnc2N1 (stereo not drawn) [Compound 36] : 1.37
6. O=C1CCc2c(Oc3ccc4c(c3)CC(c3nc5cc(C(F)(F)F)ncc5[nH]3)CO4)ccnc2N1 (racemic) [Compound 32] : 1.05
7. N#Cc1ccc2[nH]c(C3COc4ccc(Oc5ccnc6c5CCC(=O)N6)cc4C3)nc2c1 (stereo not drawn) [Compound 24] : 1.10
8. CN(C)Cc1cc(-c2c[nH]c(C3COc4ccc(Oc5ccnc6c5CCC(=O)N6)cc4C3)n2)cc(C(F)(F)F)c1 (stereo not drawn) [Compound 7] : 1.83
9. COc1ncc(-c2c[nH]c(C3COc4ccc(Oc5ccnc6c5CCC(=O)N6)cc4C3)n2)c(OC)n1 (stereo not drawn) [Compound 18] : 1.85
10. COc1ccccc1-c1c[nH]c(C2COc3ccc(Oc4ccnc5c4CCC(=O)N5)cc3C2)n1 (stereo not drawn) [Compound 1] : 2.09
11. O=C1CCc2c(Oc3ccc4c(c3)CC(c3nc(-c5ccc(C(F)(F)F)cc5)c[nH]3)CO4)ccnc2N1 (stereo not drawn) [Compound 20] : 1.23
12. O=C1CCc2c(Oc3ccc4c(c3)CC(c3nc5c(C(F)(F)F)cccc5[nH]3)CO4)ccnc2N1 (stereo not drawn) [Compound 27] : 2.01
13. O=C1CCc2c(Oc3ccc4c(c3)CC(c3cc(-c5cccc(C(F)(F)F)c5)n[nH]3)CO4)ccnc2N1 (stereo not drawn) [Compound 42] : 1.03
14. O=C1CCc2c(Oc3ccc4c(c3)CC(c3nc(-c5cc(F)ccc5F)c[nH]3)CO4)ccnc2N1 (stereo not drawn) [Compound 5] : 1.53
15. O=C1CCc2c(Oc3ccc4c(c3)CC(c3nc5cc(F)c(F)cc5[nH]3)CO4)ccnc2N1 (stereo not drawn) [Compound 23] : 1.48
16. Cc1ccc(-c2c[nH]c(C3COc4ccc(Oc5ccnc6c5CCC(=O)N6)cc4C3)n2)cc1 (stereo not drawn) [Compound 9] : 1.85
17. O=C1CCc2c(Oc3ccc4c(c3)CC(c3nc5cc(C(F)(F)F)ccc5[nH]3)CO4)ccnc2N1 (stereo not drawn) [Compound 22] : 1.56
18. O=C1CCc2c(Oc3ccc4c(c3)CN(C(=O)Nc3ccc(C(F)(F)F)cc3)CC4)ccnc2N1 [Compound 47] : 1.39
19. O=C1CCc2c(Oc3ccc4c(c3)CN(C(=O)Nc3cccc(C(F)(F)F)c3)CC4)ccnc2N1 [Compound 50] : 1.85
20. N#Cc1ccc(-c2c[nH]c(C3COc4ccc(Oc5ccnc6c5CCC(=O)N6)cc4C3)n2)cc1 (stereo not drawn) [Compound 21] : 1.19
21. O=C1CCc2c(Oc3ccc4c(c3)CC(c3nc(-c5ccc(Cl)cc5)c[nH]3)CO4)ccnc2N1 (stereo not drawn) [Compound 11] : 1.01
22. O=C1CCc2c(Oc3ccc4c(c3)CN(c3nc(-c5ccccc5)n[nH]3)CC4)ccnc2N1 [Compound 44, hydrochloride] : 1.15
23. Cc1cc(C(F)(F)F)cc2nc(C3COc4ccc(Oc5ccnc6c5CCC(=O)N6)cc4C3)[nH]c12 (stereo not drawn) [Compound 31] : 1.54
24. O=C1CCc2c(Oc3ccc4c(c3)CC(c3cc(-c5ccccc5C(F)(F)F)n[nH]3)CO4)ccnc2N1 (stereo not drawn) [Compound 35] : 2.44
25. COc1cc(-c2c[nH]c(C3COc4ccc(Oc5ccnc6c5CCC(=O)N6)cc4C3)n2)ccn1 (stereo not drawn) [Compound 19] : 1.44
26. O=C1CCc2c(Oc3ccc4c(c3)CC(c3nc(-c5cccc(F)c5)c[nH]3)CO4)ccnc2N1 (stereo not drawn) [Compound 15] : 1.60
27. O=C1CCc2c(Oc3ccc4c(c3)CC(c3nc(-c5ccnc(C(F)(F)F)c5)c[nH]3)CO4)ccnc2N1 (stereo not drawn) [Compound 8] : 1.56
28. O=C1CCc2c(Oc3ccc4c(c3)CC(c3nc5cc(Cl)ccc5[nH]3)CO4)ccnc2N1 (stereo not drawn) [Compound 25] : 1.70
29. O=C1CCc2c(Oc3ccc4c(c3)CC(c3nc(-c5ccccc5F)c[nH]3)CO4)ccnc2N1 (stereo not drawn) [Compound 3] : 1.48
30. CN(C)Cc1cc(C(F)(F)F)cc2nc(C3COc4ccc(Oc5ccnc6c5CCC(=O)N6)cc4C3)[nH]c12 (stereo not drawn) [Compound 33] : 1.89
